- method.description: chemical genetic growth profiling, strain panel (AID 1159580);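 also: tested at 20 µM; growth read once vehicle control cultures reached saturation at 30 °C; 1 = growth at the plate median or of vehicle wells; lower values mean less growth of the strain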
- protocol.conditions: S. cerevisiae deletion strains, growth OD, locus YDL134C, strain PPH21, hits give low values
The whole screen tested about 5,500 compounds, of which about 2,000 (36%) were called active. Roughly 18% stayed inconclusive and do not appear here. The list shows a part of the results.
measurement.name: normalized growth
I only need the number, thanks.

* CC(C)(C)NCC(O)c1cc(Cl)c(N)c(Cl)c1 (configuration not stated) | 1.02
* CCC(N)C(O)c1ccc(O)c(O)c1 (configuration not stated) | 1
* CC(=O)OCC1=C(C(=O)O)N2C(=O)[C@@H](NC(=O)Cc3cccs3)[C@H]2SC1 | 0.959
* COc1cc(/C=C(\C#N)C(N)=S)cc(OC)c1OC | 0.943
* ON=C(c1cccs1)c1cccs1 | 0.989

// normalized growth lookup, molecule = Cc1cc(I)c(C)cc1I , result: 0.986

// normalized growth lookup, molecule = CN[C@@H]1C(O)[C@@H](O[C@@H]2[C@@H](O)[C@H](O[C@H]3OC(CN)=CC[C@H]3N)[C@@H](N)C[C@H]2N)OC[C@]1(C)O (some centres not stated) , result: 1.02
